Where a name gives a salt, the structure may show the parent alone.
measured_property: melting point

Ask: Could you tell me which melting point is on file for O=C(c1ccccc1)N(Cc1ccccc1)C1CCN(CCC(c2ccccc2)c2ccccc2)CC1 (as salt: hydrochloride) [Example 42, monohydrochloride] ?
Reply: 115 to 120 °C

More entries:
Ask: Could you tell me which melting point is on file for COc1ccccc1CCCN1CCC(N2Cc3ccccc3C2=O)CC1 (as salt: hydrochloride) [Example 21, monohydrochloride] ?
Reply: 191 to 195 °C

----------
Counter-ions that a name gives are not always drawn.
measured_property: melting point

For orientation, consider the following solved cases.
Ask: Could you tell me which melting point is on file for O=C1c2ccccc2CN1C1CCN(C/C=C\CC(c2ccccc2)c2ccccc2)CC1 (as salt: hydrochloride) [Example 36, monohydrochloride] ?
Reply: 174 to 177 °C

Ask: Could you tell me which melting point is on file for O=C(NC1CCN(CCc2ccccc2)CC1)C(c1ccccc1)c1ccccc1 (as salt: hydrochloride) [Example 30, monohydrochloride] ?
Reply: 263 to 264 °C

Shifting focus to the molecule that follows.
Ask: Could you tell me which melting point is on file for O=C1c2ccccc2CN1C1CCN(C/C=C/CC(c2ccccc2)c2ccccc2)CC1 (as salt: hydrochloride) [Example 33, monohydrochloride] ?
Reply: 127 to 134 °C
